- assayed.target: human α-thrombin (Homo sapiens, UniProt P00734)
reported.endpoint: IC50 (µM)
Form entry: value (µM) — number only.

Noted IC50 for Nc1ccc(CNC(=O)[C@@H]2CCCN2C(=O)[C@H](N)Cc2ccccc2)cc1 [Compound 13] , tested on human α-thrombin (Homo sapiens, UniProt P00734): 1
